Form field: EC50 (one value per entry).
# study system: Hydroxycarboxylic acid receptor 2 (Rattus norvegicus)
# Sequence (Q80Z39 whole entry): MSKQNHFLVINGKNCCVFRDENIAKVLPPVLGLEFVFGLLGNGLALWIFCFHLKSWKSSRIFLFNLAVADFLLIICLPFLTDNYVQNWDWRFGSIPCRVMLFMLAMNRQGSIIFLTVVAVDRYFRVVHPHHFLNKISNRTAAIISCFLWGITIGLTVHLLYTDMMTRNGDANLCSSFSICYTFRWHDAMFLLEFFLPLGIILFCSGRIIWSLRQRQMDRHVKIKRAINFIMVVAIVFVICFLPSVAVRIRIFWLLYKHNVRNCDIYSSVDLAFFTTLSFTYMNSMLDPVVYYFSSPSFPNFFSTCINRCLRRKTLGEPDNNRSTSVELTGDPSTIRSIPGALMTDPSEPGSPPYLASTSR
# assay protocol: Agonist activity at rat GPR109A transfected in T-REX-CHO cells by cAMP assay
# Type: cell-based

[
  {
    "compound": "CCOc1cc(Cl)c(C(=O)NC(=O)Nc2nc3c(s2)C[Si](c2ccccc2)(c2ccccc2)CC3)cc1N1CCOCC1",
    "study system": "Hydroxycarboxylic acid receptor 2 (Rattus norvegicus)",
    "EC50 [nM]": 1200
  },
  {
    "compound": "CCC[Si]1(CCC)CCc2nc(NC(=O)NC(=O)c3cc(N4CCOCC4)c(OCC)cc3Cl)sc2C1",
    "study system": "Hydroxycarboxylic acid receptor 2 (Rattus norvegicus)",
    "EC50 [nM]": 1200
  },
  {
    "compound": "CCOc1cc(Cl)c(C(=O)NC(=O)Nc2nc3c(s2)C[Si](C)(c2ccc(OC)cc2)CC3)cc1-n1cccn1 (centres undefined)",
    "study system": "Hydroxycarboxylic acid receptor 2 (Rattus norvegicus)",
    "EC50 [nM]": 470
  },
  {
    "compound": "CCOc1cc(Cl)c(C(=O)NC(=O)Nc2nc3c(s2)C[Si](c2ccccc2)(c2ccc(OC)cc2)CC3)cc1-n1cccn1 (centres undefined)",
    "study system": "Hydroxycarboxylic acid receptor 2 (Rattus norvegicus)",
    "EC50 [nM]": 470
  }
]
